The reported numbers originate from PubChem BioAssay AID2556.

Test: xanthine oxidase inhibitors, late-stage follow-up, counter-screen for NOX1 inhibitor project, biochemical (AID 2556)
Details: xanthine oxidase superoxide assay
Calls of active or inactive are those of the source. How the calls were made is not given here.
Outcome (select one): YES = active, NO = inactive

// below: answered compounds
COc1cc(-c2nc(-c3ccccc3)c(-c3ccccc3)[nH]2)ccc1O: NO
c1ccc2c(c1)Nc1nc3ccccc3nc1N2: YES
Cc1cc(Cl)ccc1NC(=S)NNC(=S)Nc1ccc(F)cc1: NO

## Input Called result for CN(C)c1ccc(NC(=O)Nc2ccc(OCc3ccccc3)cc2)cc1
## Output YES

## Input Tell me the assay call for O=C(Oc1ccccc1N1CCCCC1)c1sc2ccccc2c1Cl please.
## Output NO
